ASSAYED_TARGET: DPP9 (Homo sapiens (Human))
Sequence (Q86TI2 whole entry): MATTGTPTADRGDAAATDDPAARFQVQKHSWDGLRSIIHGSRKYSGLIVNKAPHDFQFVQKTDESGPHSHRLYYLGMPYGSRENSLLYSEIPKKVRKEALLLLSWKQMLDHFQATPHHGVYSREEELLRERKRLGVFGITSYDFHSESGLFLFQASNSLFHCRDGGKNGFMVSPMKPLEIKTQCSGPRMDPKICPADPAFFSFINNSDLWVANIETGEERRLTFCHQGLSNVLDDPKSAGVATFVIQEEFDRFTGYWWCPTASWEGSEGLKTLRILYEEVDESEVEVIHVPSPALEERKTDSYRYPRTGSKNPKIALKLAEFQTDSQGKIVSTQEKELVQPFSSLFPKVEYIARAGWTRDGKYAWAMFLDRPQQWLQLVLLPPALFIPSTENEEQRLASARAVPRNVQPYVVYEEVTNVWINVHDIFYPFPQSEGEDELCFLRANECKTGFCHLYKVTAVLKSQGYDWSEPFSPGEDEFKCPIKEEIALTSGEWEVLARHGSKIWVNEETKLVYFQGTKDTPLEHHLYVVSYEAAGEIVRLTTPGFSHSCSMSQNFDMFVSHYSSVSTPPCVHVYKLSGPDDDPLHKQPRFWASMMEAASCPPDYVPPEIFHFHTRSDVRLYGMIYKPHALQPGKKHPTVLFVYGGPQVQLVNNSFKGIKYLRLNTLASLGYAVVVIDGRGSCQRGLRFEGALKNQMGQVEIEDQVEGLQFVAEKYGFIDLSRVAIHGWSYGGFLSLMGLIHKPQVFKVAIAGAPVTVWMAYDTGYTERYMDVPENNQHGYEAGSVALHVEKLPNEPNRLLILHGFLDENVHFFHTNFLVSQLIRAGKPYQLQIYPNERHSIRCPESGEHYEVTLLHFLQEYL
ASSAY_EXPLANATION: DPP9 enzyme inhibition, IC50 measurement (Ala-Pro-pNA release)
Assay type: biochemical
CONDITION_DETAILS: Table 3; mean ± SD (n = 3); read-out: DPP9 IC50 ± SD
API: label(entry) gives Fulfilled if the entry's IC50 is strictly smaller than 40 nM; on equality or larger values it gives Not fulfilled.

- COMPOUND: "O=C(NCCCc1ccccc1)OC12CC3CC(CC(NCC(=O)N4Cc5ccccc5C4)(C3)C1)C2"
  ASSIGNED_LABEL: "Not fulfilled"
- COMPOUND: "CC(C)(C)OC(=O)NC12CC3CC(CC(NCC(=O)N4Cc5ccccc5C4)(C3)C1)C2"
  ASSIGNED_LABEL: "Fulfilled"
- COMPOUND: "O=C(NCc1ccc(F)cc1F)OC12CC3CC(CC(NCC(=O)N4Cc5ccccc5C4)(C3)C1)C2"
  ASSIGNED_LABEL: "Not fulfilled"
- COMPOUND: "COC(=O)[C@H](Cc1c[nH]c2ccccc12)NC(=O)OC12CC3CC(CC(NCC(=O)N4Cc5ccc(F)cc5C4)(C3)C1)C2"
  ASSIGNED_LABEL: "Not fulfilled"
- COMPOUND: "O=C(N[C@H]1CC[C@H](O)CC1)OC12CC3CC(CC(NCC(=O)N4Cc5ccccc5C4)(C3)C1)C2"
  ASSIGNED_LABEL: "Fulfilled"
- COMPOUND: "CC(C)(C)NC(=O)NC12CC3CC(CC(NCC(=O)N4Cc5ccc(F)cc5C4)(C3)C1)C2"
  ASSIGNED_LABEL: "Fulfilled"
- COMPOUND: "CCCCNC12CC3CC(C1)CC(NCC(=O)N1Cc4ccccc4C1)(C3)C2 [Compound 25, 2,2,2-trifluoroacetate]"
  ASSIGNED_LABEL: "Not fulfilled"
- COMPOUND: "N#Cc1ccc(CNC23CC4CC(CC(NCC(=O)N5Cc6ccccc6C5)(C4)C2)C3)cc1"
  ASSIGNED_LABEL: "Not fulfilled"
- COMPOUND: "NC12CC3CC(C1)CC(NCC(=O)N1Cc4ccc(F)cc4C1)(C3)C2 [Compound 47, bis(2,2,2-trifluoroacetate)]"
  ASSIGNED_LABEL: "Not fulfilled"
- COMPOUND: "N#Cc1ccc(CCC(=O)NC23CC4CC(CC(NCC(=O)N5Cc6ccccc6C5)(C4)C2)C3)cc1"
  ASSIGNED_LABEL: "Fulfilled"
- COMPOUND: "CC(C)(C)OC(=O)NC12CC3CC(CC(NCC(=O)N4Cc5cc(F)c(F)cc5C4)(C3)C1)C2"
  ASSIGNED_LABEL: "Fulfilled"
- COMPOUND: "CC(C)(C)NC(=O)NC12CC3CC(CC(NCC(=O)N4Cc5ccccc5C4)(C3)C1)C2.Cl [Compound 40, hydrochloride]"
  ASSIGNED_LABEL: "Not fulfilled"
- COMPOUND: "O=C(NCCCCO)OC12CC3CC(CC(NCC(=O)N4Cc5ccccc5C4)(C3)C1)C2"
  ASSIGNED_LABEL: "Not fulfilled"

---

ASSAYED_TARGET: DPP4 (Homo sapiens (Human))
Sequence (P27487 whole entry): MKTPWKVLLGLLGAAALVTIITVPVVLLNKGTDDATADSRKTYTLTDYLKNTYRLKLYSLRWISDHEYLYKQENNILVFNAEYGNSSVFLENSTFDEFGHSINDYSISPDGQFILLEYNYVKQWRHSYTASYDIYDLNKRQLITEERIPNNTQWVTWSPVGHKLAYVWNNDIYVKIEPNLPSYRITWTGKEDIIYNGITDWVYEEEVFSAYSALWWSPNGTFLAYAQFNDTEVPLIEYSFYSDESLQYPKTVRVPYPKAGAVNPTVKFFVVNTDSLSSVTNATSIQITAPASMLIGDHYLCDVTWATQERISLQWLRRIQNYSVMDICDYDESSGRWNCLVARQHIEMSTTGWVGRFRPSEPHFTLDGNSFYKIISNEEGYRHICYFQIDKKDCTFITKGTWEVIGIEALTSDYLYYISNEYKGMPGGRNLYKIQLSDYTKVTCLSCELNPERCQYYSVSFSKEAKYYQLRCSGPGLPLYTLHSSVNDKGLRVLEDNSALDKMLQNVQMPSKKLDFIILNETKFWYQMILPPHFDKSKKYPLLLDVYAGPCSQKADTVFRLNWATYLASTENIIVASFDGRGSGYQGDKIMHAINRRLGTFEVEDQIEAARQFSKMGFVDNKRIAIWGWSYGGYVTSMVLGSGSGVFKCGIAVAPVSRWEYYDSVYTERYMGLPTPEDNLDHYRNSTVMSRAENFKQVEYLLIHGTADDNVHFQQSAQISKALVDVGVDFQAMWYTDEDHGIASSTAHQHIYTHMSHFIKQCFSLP
ASSAY_EXPLANATION: DPP4 enzyme inhibition, IC50 measurement (Ala-Pro-pNA release)
Format: biochemical
CONDITION_DETAILS: Table 1; mean ± SD (n = 3)
pIC50: −log10 of the molar value.
ASSAY_ENDPOINT: pIC50

- COMPOUND: "N#C[C@@H]1C[C@H](N=[N+]=[N-])CN1C(=O)CNC12CC3CC(C1)CC(OCc1ccc(F)cc1F)(C3)C2 [Compound 5f]"
  RESULT: 7.62
- COMPOUND: "CCCCOC12CC3CC(CC(NCC(=O)N4CCC[C@H]4C#N)(C3)C1)C2 [Compound 5c]"
  RESULT: 7.92
- COMPOUND: "C=C1C[C@@H](C#N)N(C(=O)CNC23CC4CC(C2)CC(OCc2ccc(F)cc2F)(C4)C3)C1 [Compound 5j]"
  RESULT: 6.39
- COMPOUND: "N#C[C@@H]1[C@@H]2C[C@@H]2CN1C(=O)CNC12CC3CC(C1)CC(OCc1ccc(F)cc1F)(C3)C2 [Compound 5n]"
  RESULT: 6.70
- COMPOUND: "N#C[C@@H]1CCCN1C(=O)CNC12CC3CC(C1)CC(OCc1ccc(F)cc1F)(C3)C2 [Compound 5b]"
  RESULT: 8.30
- COMPOUND: "N#C[C@@H]1C[C@H](N=[N+]=[N-])CN1C(=O)CNC12CC3CC(C1)CC(OCc1ccccc1)(C3)C2 [Compound 5e]"
  RESULT: 7.77
- COMPOUND: "C=C1C[C@@H](C#N)N(C(=O)CNC23CC4CC(C2)CC(OCCCC)(C4)C3)C1 [Compound 5k]"
  RESULT: 6.49
